Entry source: patent US20260325685A1

Target: human CA-IX (Homo sapiens, UniProt Q16790)
Construct: purchased Acro CA9-H82E3
Experiment: Surface Plasmon Resonance (SPR) binding kinetics to recombinant human CA-IX (Biacore 8K, single-cycle kinetics, 1:1 binding model)
Details: Chelated Metal: Lu-175; SPR, 25° C., pH 7.4; read-out: CAIX KD

>  <Compound structure>
NS(=O)(=O)c1nnc(NC(=O)C23CCC(c4cn(CCNC(=O)[C@@H]5CN(C(=O)CN6CCN(CC(=O)O)CCN(CC(=O)O)CCN(CC(=O)O)CC6)CCN5C(=O)CC[C@H](NC(=O)C[C@H](NC(=O)c5cc(C(F)(F)F)[nH]n5)C(=O)O)C(=O)O)nn4)(CC2)CC3)s1.[Lu+3]

>  <Assay target>
human CA-IX (Homo sapiens, UniProt Q16790)

>  <Kd>
< 1 nM

$$$$
>  <Compound structure>
CC(CCCC(=O)N1CCC(C(N)=O)(C(=O)NCC(=O)N2CCN(C(=O)CN3CCN(CC(=O)O)CCN(CC(=O)O)CCN(CC(=O)O)CC3)C[C@@H]2C(=O)NCCn2nnc(C34CC(C(=O)Nc5nnc(S(N)(=O)=O)s5)(C3)C4)c2C(=O)O)CC1)(c1ccc(O)cc1)c1ccc(O)cc1.[Lu+3]

>  <Assay target>
human CA-IX (Homo sapiens, UniProt Q16790)

>  <Kd>
< 1 nM

$$$$
>  <Compound structure>
CC(CCC(=O)N1CCC(C(=O)O)(C(=O)NCC(=O)N2CCN(C(=O)CN3CCN(CC(=O)O)CCN(CC(=O)O)CCN(CC(=O)O)CC3)C[C@@H]2C(=O)NCCn2cc(C34CC(C(=O)Nc5nnc(S(N)(=O)=O)s5)(C3)C4)nn2)CC1)(c1ccc(O)cc1)c1ccc(O)cc1.[Lu+3]

>  <Assay target>
human CA-IX (Homo sapiens, UniProt Q16790)

>  <Kd>
1 to 2.5 nM

$$$$

---

Biological target: human CA-XII (Homo sapiens)
Construct: purchased Creative BioMart CA12-261H
Experiment: Surface Plasmon Resonance (SPR) binding kinetics to recombinant human CA-XII (Biacore 8K, single-cycle kinetics, 1:1 binding model)
Details: Chelated Metal: Lu-175, 25° C., pH 7.4, read-out: CAXII KD
pKd: −log10 of the molar value.
The compounds listed here are annotated with their pKd.
Property name: pKd

>  <Compound>
NS(=O)(=O)c1nnc(CC(=O)C23CC(c4cn(CCNC(=O)[C@H]5COCCN5C(=O)CC[C@H](NC(=O)[C@H](CCCCNC(=O)CN5CCN(CC(=O)O)CCN(CC(=O)O)CCN(CC(=O)O)CC5)NC(=O)c5n[nH]c6ccccc56)C(=O)O)nn4)(C2)C3)s1.[Lu+3]

>  <Readout value>
< 8.00

$$$$
>  <Compound>
CC(CCCC(=O)N1CCC(C(N)=O)(C(=O)NCC(=O)N2CCN(C(=O)CC[C@H](C(=O)O)N3CCN(CC(=O)O)CCN(CC(=O)O)CCN(CC(=O)O)CC3)C[C@H]2C(=O)NCCn2cc(C34CC(C(=O)Nc5nnc(S(N)(=O)=O)s5)(C3)C4)nn2)CC1)(c1ccc(O)cc1)c1ccc(O)cc1.[Lu+3]

>  <Readout value>
< 8.00

$$$$
>  <Compound>
CCCCNc1c(F)c(S(N)(=O)=O)c(F)c(F)c1S(=O)(=O)CCOCc1cn(CCNC(=O)[C@H]2CN(C(=O)CN3CCN(CC(=O)O)CCN(CC(=O)O)CCN(CC(=O)O)CC3)CCN2C(=O)C[C@H](NC(=O)[C@@H]2COCCN2C(=O)CCCc2ccc(O)cc2)C(=O)O)nn1.[Lu+3]

>  <Readout value>
< 8.00

$$$$
>  <Compound>
CC(CCCC(=O)N1CCC(C(N)=O)(C(=O)NCC(=O)NC2(C(=O)NCCn3cc(C45CC(C(=O)Nc6nnc(S(N)(=O)=O)s6)(C4)C5)nn3)CCN(C(=O)CC[C@H](C(=O)O)N3CCN(CC(=O)O)CCN(CC(=O)O)CCN(CC(=O)O)CC3)CC2)CC1)(c1ccc(O)cc1)c1ccc(O)cc1.[Lu+3]

>  <Readout value>
< 8.00

$$$$
>  <Compound>
NS(=O)(=O)c1nnc(NC(=O)C23CC(c4cn(CCNC(=O)[C@@H]5CN(C(=O)CN6CCN(CC(=O)O)CCN(CC(=O)O)CCN(CC(=O)O)CC6)CCN5C(=O)CNC(=O)C5(C(=O)O)CCN(C(=O)CCC6CCCCCC6)CC5)nn4)(C2)C3)s1.[Lu+3]

>  <Readout value>
< 8.00

$$$$
>  <Compound>
CC(CCCC(=O)N1CCC(C(N)=O)(C(=O)NCC(=O)NC2CCN(C(=O)CCOCCOCCOCCOCCN(CCOCCOCCOCCOCCC(=O)N3CCC(NC(=O)CNC(=O)C4(C(N)=O)CCN(C(=O)CCCC(C)(c5ccc(O)cc5)c5ccc(O)cc5)CC4)C(C(=O)NCCn4cc(C56CC(C(=O)Nc7nnc(S(N)(=O)=O)s7)(C5)C6)nn4)C3)C(=O)CNC(=O)CN3CCN(CC(=O)O)CCN(CC(=O)O)CCN(CC(=O)O)CC3)CC2C(=O)NCCn2cc(C34CC(C(=O)Nc5nnc(S(N)(=O)=O)s5)(C3)C4)nn2)CC1)(c1ccc(O)cc1)c1ccc(O)cc1.[Lu+3] (stereo not drawn)

>  <Readout value>
8.60 to 9.00

$$$$

---

Target: human CA-XII (Homo sapiens, UniProt O43570)
Construct: purchased Creative BioMart CA12-261H
Sequence (O43570 25-354): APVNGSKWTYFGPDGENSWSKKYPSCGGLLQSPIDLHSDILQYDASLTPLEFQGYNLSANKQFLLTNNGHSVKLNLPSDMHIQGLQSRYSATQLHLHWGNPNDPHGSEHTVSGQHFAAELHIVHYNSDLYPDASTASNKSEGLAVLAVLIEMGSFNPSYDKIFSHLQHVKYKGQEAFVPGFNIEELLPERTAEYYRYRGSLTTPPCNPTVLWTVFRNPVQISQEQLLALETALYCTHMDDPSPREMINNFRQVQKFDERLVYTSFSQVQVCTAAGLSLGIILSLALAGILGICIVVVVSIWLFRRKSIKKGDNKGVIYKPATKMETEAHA
Test: Surface Plasmon Resonance (SPR) binding kinetics to recombinant human CA-XII (Biacore 8K, single-cycle kinetics, 1:1 binding model)
Conditions: Chelated Metal: Lu-175, 25° C., pH 7.4, read-out: CAXII KD
The compounds listed here are annotated with their Kd.

>  <Compound structure>
NS(=O)(=O)c1c(F)c(F)c(S(=O)(=O)CCOCc2cn(CCCNC(=O)[C@@H]3CN(C(=O)CN4CCN(CC(=O)O)CCN(CC(=O)O)CCN(CC(=O)O)CC4)CCN3C(=O)CNC(=O)C3(C(=O)O)CCN(C(=O)CCCCc4ccc(O)cc4)CC3)nn2)c(NC2CCCCCCC2)c1F.[Lu+3]

>  <Kd>
2.5 to 10 nM

$$$$
>  <Compound structure>
NS(=O)(=O)c1nnc(NC(=O)C23CC(c4cn(CCNC(=O)[C@@H]5CN(C(=O)CN6CCN(CC(=O)O)CCN(CC(=O)O)CCN(CC(=O)O)CC6)CCN5C(=O)C[C@H](NC(=O)C[C@H](NC(=O)c5n[nH]c6ccc(F)cc56)C(=O)O)C(=O)O)nn4)(C2)C3)s1.[Lu+3]

>  <Kd>
2.5 to 10 nM

$$$$
>  <Compound structure>
NS(=O)(=O)c1nnc(NC(=O)C23CC(c4cn(CCNC(=O)[C@@H]5CN(C(=O)CN6CCN(CC(=O)O)CCN(CC(=O)O)CCN(CC(=O)O)CC6)CCN5C(=O)C[C@H](NC(=O)C[C@H](NC(=O)Cc5n[nH]c6ccc(F)cc56)C(=O)O)C(=O)O)nn4)(C2)C3)s1.[Lu+3]

>  <Kd>
2.5 to 10 nM

$$$$
>  <Compound structure>
NS(=O)(=O)c1nnc(NC(=O)C23CCC(c4cn(CCNC(=O)[C@@H]5CN(C(=O)CN6CCN(CC(=O)O)CCN(CC(=O)O)CCN(CC(=O)O)CC6)CCN5C(=O)CC[C@H](NC(=O)C[C@H](NC(=O)CCCc5ccc(O)cc5)C(=O)O)C(=O)O)nn4)(CC2)CC3)s1.[Lu+3]

>  <Kd>
< 1 nM

$$$$

---

Biological target: human CA-IX (Homo sapiens, UniProt Q16790)
Construct: purchased Acro CA9-H82E3
Assay: Surface Plasmon Resonance (SPR) binding kinetics to recombinant human CA-IX (Biacore 8K, single-cycle kinetics, 1:1 binding model)
Conditions: Chelated Metal: Lu-175; SPR, 25° C., pH 7.4; read-out: CAIX KD
Description: G1. Surface Plasmon Resonance Assay Conditions for hCA-IX and hCA-XII Surface Plasmon Resonance (SPR) experiments were conducted on a Biacore 8K instrument (Cytiva, Marlborough, MA) to determine the binding kinetics of the compound to recombinant human CA-IX (Acro, CA9-H82E3) and CA-XII (Creative BioMart, CA12-261H) proteins. […]
The compounds listed here are annotated with their Kd.
Property name: Kd

>  <Compound structure>
NS(=O)(=O)c1nnc(NC(=O)C23CC(c4cn(CCNC(=O)[C@@H]5CN(C(=O)CN6CCN(CC(=O)O)CCN(CC(=O)O)CCN(CC(=O)O)CC6)CCN5C(=O)C[C@H](Nc5ncc(C(=O)NCC6CC7(CCC7)C6)cn5)C(=O)O)nn4)(C2)C3)s1.[Lu+3]

>  <Readout value>
1 to 2.5 nM

$$$$
>  <Compound structure>
CC(CCCC(=O)N1CCCC[C@H]1C(=O)N[C@@H](CC(=O)N1CCN(C(=O)CN2CCN(CC(=O)O)CCN(CC(=O)O)CCN(CC(=O)O)CC2)C[C@@H]1C(=O)NCCn1cc(C23CC(C(=O)Nc4nnc(S(N)(=O)=O)s4)(C2)C3)nn1)C(=O)O)(c1ccc(O)cc1)c1ccc(O)cc1.[Lu+3]

>  <Readout value>
< 1 nM

$$$$
>  <Compound structure>
NS(=O)(=O)c1nnc(NC(=O)C23CC(c4cn(CCNC(=O)[C@@H]5CN(C(=O)CN6CCN(CC(=O)O)CCN(CC(=O)O)CCN(CC(=O)O)CC6)CCN5C(=O)C[C@H](NC(=O)C[C@H](NC(=O)C5CC6(C5)CC(F)(F)C6)C(=O)O)C(=O)O)nn4)(C2)C3)s1.[Lu+3]

>  <Readout value>
1 to 2.5 nM

$$$$
>  <Compound structure>
CC(CCC(=O)N[C@@H](CC(=O)N[C@@H](CC(=O)N[C@@H](CCCCn1cc(C23CCC(C(=O)Nc4nnc(S(N)(=O)=O)s4)(CC2)C3)nn1)C(=O)N1CCN(C(=O)CN2CCN(CC(=O)O)CCN(CC(=O)O)CCN(CC(=O)O)CC2)CC1)C(=O)O)C(=O)O)(c1ccc(O)cc1)c1ccc(O)cc1.[Lu+3]

>  <Readout value>
< 1 nM

$$$$
